- ASSAY EXPLANATION: Solubility in aqueous media at 37° C.
- Format: physicochemical
- CONDITION DETAILS: aqueous buffer, thermodynamic from solid, pH 3.0 citrate buffer (50 mM)
QUANTITY MEASURED: solubility at 2 h (µg/mL)
Dear colleague, please return just the value in µg/mL, with no unit written.

Given the compound Cc1nc(-c2c[nH]c3c(C#N)cccc23)cnc1OCC(C)(C)O [Form C] , what is its reported solubility at 2 h?
5.97

* * *

- ASSAY EXPLANATION: Solubility in solvents and mixture solvents
- Format: physicochemical
- CONDITION DETAILS: 2-MeTHF/n-heptane 4/4 (v/v), organic solvent or mixture, thermodynamic from solid; 2-ME-THF/n-hep = 4/4 (v/v), 50 ° C.; read-out: Solubility
QUANTITY MEASURED: Solubility (mg/mL)
Give the number; mg/mL is assumed, so skip it.

Given the compound Cc1nc(-c2c[nH]c3c(C#N)cccc23)cnc1OCC(C)(C)O [Form C] , what is its reported Solubility?
21
